Give pIC50 for every item shown.
Target: 5-HT1A receptor (recombinant human membrane, HEK293 cells) (Homo sapiens)
Construct: 1812363
Assay: radioligand receptor binding assay, [3H]-8-OH-DPAT displacement
Settings: mean ± S.D.; 2 nM [3H]-8-OH-DPAT; assayed up to 100 or 30 μM
pIC50: −log10 of the molar value.

Compound	Experimental system	pIC50
CC(C)=C[C@@H]1CO[C@]23C[C@]4(CO2)[C@H](CC[C@@H]2[C@@]5(C)CC[C@H](O[C@@H]6OC[C@H](O)[C@H](O[C@@H]7O[C@H](CO)[C@@H](O)[C@H](O)[C@H]7O)[C@H]6O[C@@H]6O[C@@H](CO)[C@H](O)[C@H]6O)C(C)(C)[C@@H]5CC[C@]24C)[C@H]3[C@@]1(C)O	5-HT1A receptor (recombinant human membrane, HEK293 cells) (Homo sapiens)	< 4.00

Need pIC50 of CC(C)=C[C@H]1C[C@](C)(O)[C@@H]2[C@H]3CC[C@@H]4[C@@]5(C)CC[C@H](O[C@@H]6OC[C@H](O)[C@H](O[C@@H]7O[C@H](CO)[C@@H](O)[C@H](O)[C@H]7O)[C@H]6O[C@@H]6O[C@@H](CO)[C@H](O)[C@H]6O)C(C)(C)[C@@H]5CC[C@@]4(C)[C@@]34CO[C@@]2(C4)O1 [Bacopaside X, bacopaside X] , thanks. < 4.00

* * *

Biological target: 5-HT2A receptor (recombinant human membrane, CHO cells) (Homo sapiens, UniProt P28223)
Construct: 1813092
Assay: radioligand receptor binding assay, [3H]-ketanserin displacement
Conditions: from IC50 by Cheng-Prusoff equation
Measure: pKi
Numbers only, as −log10 of the molar value.

Need pKi of CC(C)=CC=CC(C)=CC1CCC2C3(C)CCC(O)C(C)(C)C3CCC2(C)C12COC(=O)C2 (stereo not shown) [Ebelin Lactone, ebelin lactone] , thanks. 5.38

* * *

Target: D2S receptor (recombinant human membrane, CHO cells) (Homo sapiens, UniProt P14416)
Construct: 1820984
Sequence (P14416 1-414 isoform P14416-2): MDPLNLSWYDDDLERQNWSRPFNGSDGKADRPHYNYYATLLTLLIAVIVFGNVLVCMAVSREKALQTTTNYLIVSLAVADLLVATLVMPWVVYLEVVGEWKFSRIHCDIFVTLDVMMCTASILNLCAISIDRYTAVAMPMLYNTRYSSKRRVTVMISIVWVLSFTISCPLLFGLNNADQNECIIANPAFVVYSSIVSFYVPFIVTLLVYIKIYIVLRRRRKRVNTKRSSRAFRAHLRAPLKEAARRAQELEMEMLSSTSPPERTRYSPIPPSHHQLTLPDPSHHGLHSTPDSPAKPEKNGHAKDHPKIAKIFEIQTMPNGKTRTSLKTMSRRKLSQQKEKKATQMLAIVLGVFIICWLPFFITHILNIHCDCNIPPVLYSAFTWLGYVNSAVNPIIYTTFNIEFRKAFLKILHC
Test: radioligand receptor binding assay, [3H]-methylspiperone displacement
Conditions: mean ± S.D.; 0.2 nM [3H]-methylspiperone; assayed up to 100 or 30 μM; read-out: IC50 D2
pIC50: −log10 of the molar value.
Measure: pIC50

As a guide, the following entries are already answered.
Compound	pIC50
CC(C)=CC=CC(C)=CC1CCC2C3(C)CCC(O)C(C)(C)C3CCC2(C)C12COC(=O)C2 (stereo not drawn)	< 4.52
CC(C)=C[C@H]1C[C@](C)(O)[C@@H]2[C@H]3CC[C@@H]4[C@@]5(C)CC[C@H](O[C@@H]6O[C@H](CO)[C@@H](O)[C@H](O[C@@H]7O[C@H](CO)[C@@H](O)[C@H](O)[C@H]7O)[C@H]6O[C@@H]6O[C@@H](CO)[C@H](O)[C@H]6O)C(C)(C)[C@@H]5CC[C@@]4(C)[C@@]34CO[C@@]2(C4)O1 [Bacoside A3, bacoside A3]	< 4.00
CC(C)=C[C@H]1C[C@](C)(O)[C@@H]2[C@H]3CC[C@@H]4[C@@]5(C)CC[C@H](O[C@@H]6OC[C@H](O)[C@H](O[C@@H]7O[C@H](CO)[C@@H](O)[C@H](O)[C@H]7O)[C@H]6O[C@@H]6O[C@@H](CO)[C@H](O)[C@H]6O)C(C)(C)[C@@H]5CC[C@@]4(C)[C@@]34CO[C@@]2(C4)O1 [Bacopaside X, bacopaside X]	< 4.00
CC(C)=C[C@@H]1CO[C@]23C[C@]4(CO2)[C@H](CC[C@@H]2[C@@]5(C)CC[C@H](O[C@@H]6OC[C@H](O)[C@H](O[C@@H]7O[C@H](CO)[C@@H](O)[C@H](O)[C@H]7O)[C@H]6O[C@@H]6O[C@@H](CO)[C@H](O)[C@H]6O)C(C)(C)[C@@H]5CC[C@]24C)[C@H]3[C@@]1(C)O	< 4.00
CC(C)=CC1COC23CC4(CO2)C(CCC2C5(C)CCC(OC6OC(CO)C(O)C(OC7OC(CO)C(O)C(O)C7O)C6OC6OC(CO)C(O)C6O)C(C)(C)C5CCC24C)C3C1(C)O (stereo not drawn) [Bacopaside II, bacopaside II]	< 4.52

Need pIC50 of CC(C)=CC1CC(C)(O)C2C3CCC4C5(C)CCC(O)C(C)(C)C5CCC4(C)C34COC2(C4)O1 (stereo not drawn) , thanks. < 4.52

* * *

Target: 5-HT1A receptor (recombinant human membrane, HEK293 cells) (Homo sapiens)
Construct: 1812363
Sequence (P08908 1-422): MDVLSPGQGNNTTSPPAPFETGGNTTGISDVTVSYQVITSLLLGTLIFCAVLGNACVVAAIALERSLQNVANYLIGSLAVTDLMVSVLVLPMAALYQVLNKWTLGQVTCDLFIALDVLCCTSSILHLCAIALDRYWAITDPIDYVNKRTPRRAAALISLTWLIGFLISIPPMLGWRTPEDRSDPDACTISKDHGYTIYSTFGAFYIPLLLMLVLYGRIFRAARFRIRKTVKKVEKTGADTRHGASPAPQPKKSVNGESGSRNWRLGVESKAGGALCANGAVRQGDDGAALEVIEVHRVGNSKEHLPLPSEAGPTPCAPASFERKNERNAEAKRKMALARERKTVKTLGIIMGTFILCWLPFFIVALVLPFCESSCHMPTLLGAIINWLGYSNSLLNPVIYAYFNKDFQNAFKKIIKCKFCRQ
Test: radioligand receptor binding assay, [3H]-8-OH-DPAT displacement
Conditions: mean ± S.D.; 2 nM [3H]-8-OH-DPAT; assayed up to 100 or 30 μM
pIC50: −log10 of the molar value.
Give pIC50 for every item shown.

Hi! Can you tell me pIC50 for each of these molecules?
1. CC(C)=CC1COC23CC4(CO2)C(CCC2C5(C)CCC(OC6OC(CO)C(O)C(OC7OC(CO)C(O)C(O)C7O)C6OC6OC(CO)C(O)C6O)C(C)(C)C5CCC24C)C3C1(C)O (stereo not shown) [Bacopaside II, bacopaside II]
2. CC(C)=C[C@H]1C[C@](C)(O)[C@@H]2[C@H]3CC[C@@H]4[C@@]5(C)CC[C@H](O[C@@H]6O[C@H](CO)[C@@H](O)[C@H](O[C@@H]7O[C@H](CO)[C@@H](O)[C@H](O)[C@H]7O)[C@H]6O[C@@H]6O[C@@H](CO)[C@H](O)[C@H]6O)C(C)(C)[C@@H]5CC[C@@]4(C)[C@@]34CO[C@@]2(C4)O1 [Bacoside A3, bacoside A3]
3. CC(C)=CC=CC(C)=CC1CCC2C3(C)CCC(O)C(C)(C)C3CCC2(C)C12COC(=O)C2 (stereo not shown)
4. CC(C)=CC1CC(C)(O)C2C3CCC4C5(C)CCC(O)C(C)(C)C5CCC4(C)C34COC2(C4)O1 (stereo not shown)

1. < 4.52
2. < 4.00
3. < 4.52
4. < 4.52

* * *

Biological target: D1 receptor (recombinant human membrane, L cells) (Homo sapiens, UniProt P21728)
Construct: 1840059
Sequence (P21728 whole entry): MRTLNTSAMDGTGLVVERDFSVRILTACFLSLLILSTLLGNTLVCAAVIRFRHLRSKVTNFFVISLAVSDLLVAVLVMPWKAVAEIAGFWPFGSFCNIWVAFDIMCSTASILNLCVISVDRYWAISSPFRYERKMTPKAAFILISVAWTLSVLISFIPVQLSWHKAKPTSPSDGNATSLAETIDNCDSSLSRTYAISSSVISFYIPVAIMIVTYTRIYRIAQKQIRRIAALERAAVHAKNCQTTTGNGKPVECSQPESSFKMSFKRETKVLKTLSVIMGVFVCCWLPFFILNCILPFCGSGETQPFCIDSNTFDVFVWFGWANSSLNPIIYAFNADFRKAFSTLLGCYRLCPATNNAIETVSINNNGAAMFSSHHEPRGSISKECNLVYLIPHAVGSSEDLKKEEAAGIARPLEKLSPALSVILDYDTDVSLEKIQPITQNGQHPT
Experiment: radioligand receptor binding assay, [3H]-SCH 23390 displacement
Conditions: mean ± S.D.; 0.2 nM [3H]-SCH 23390; assayed up to 100 or 30 μM
Measure: IC50

As a guide, the following entries are already answered.
Compound	IC50
CC(C)=C[C@H]1C[C@](C)(O)[C@@H]2[C@H]3CC[C@@H]4[C@@]5(C)CC[C@H](O[C@@H]6O[C@H](CO)[C@@H](O)[C@H](O[C@@H]7O[C@H](CO)[C@@H](O)[C@H](O)[C@H]7O)[C@H]6O[C@@H]6O[C@@H](CO)[C@H](O)[C@H]6O)C(C)(C)[C@@H]5CC[C@@]4(C)[C@@]34CO[C@@]2(C4)O1 [Bacoside A3, bacoside A3]	> 100 µM
CC(C)=CC=CC(C)=CC1CCC2C3(C)CCC(O)C(C)(C)C3CCC2(C)C12COC(=O)C2 (stereo not drawn)	> 30 µM
CC(C)=CC1COC23CC4(CO2)C(CCC2C5(C)CCC(OC6OC(CO)C(O)C(OC7OC(CO)C(O)C(O)C7O)C6OC6OC(CO)C(O)C6O)C(C)(C)C5CCC24C)C3C1(C)O (stereo not drawn) [Bacopaside II, bacopaside II]	> 30 µM
CC(C)=C[C@H]1C[C@](C)(O)[C@@H]2[C@H]3CC[C@@H]4[C@@]5(C)CC[C@H](O[C@@H]6OC[C@H](O)[C@H](O[C@@H]7O[C@H](CO)[C@@H](O)[C@H](O)[C@H]7O)[C@H]6O[C@@H]6O[C@@H](CO)[C@H](O)[C@H]6O)C(C)(C)[C@@H]5CC[C@@]4(C)[C@@]34CO[C@@]2(C4)O1 [Bacopaside X, bacopaside X]	19.5 µM
CC(C)=C[C@@H]1CO[C@]23C[C@]4(CO2)[C@H](CC[C@@H]2[C@@]5(C)CC[C@H](O[C@@H]6OC[C@H](O)[C@H](O[C@@H]7O[C@H](CO)[C@@H](O)[C@H](O)[C@H]7O)[C@H]6O[C@@H]6O[C@@H](CO)[C@H](O)[C@H]6O)C(C)(C)[C@@H]5CC[C@]24C)[C@H]3[C@@]1(C)O	> 100 µM

Attention now shifts to the item below.
Need IC50 of CC(C)=CC1CC(C)(O)C2C3CCC4C5(C)CCC(O)C(C)(C)C5CCC4(C)C34COC2(C4)O1 (stereo not drawn) , thanks. > 30 µM
